Measured EC50 of individual entries
System: A549
protocol notes: Cytotoxicity against human A549 cells by SRB assay
Assay type: functional
conditions: Homo sapiens, A549; read-out: ED50 (the source's name)

* COc1ccc2c3cc[n+]([O-])c4ccc(=O)n(c2c1)c34 | 18.5 µg/mL
* COc1ccc2c3ccnc4ccc(=O)n(c2c1)c43 | < 2.5 µg/mL
* COc1ccc2c(c1)[nH]c1c(CCC(=O)O)nccc12 | > 20 µg/mL
* O=c1ccc2nccc3c4ccccc4n1c23 | 3.6 µg/mL
* O=c1ccc2nccc3c4ccc(O)cc4n1c23 | 10 µg/mL

Now look at this entry.
### Prompt Quick check: EC50 of COc1c(O)c2nccc3c4ccccc4n(c1=O)c23 ?
### Response 16.2 µg/mL
